From: PubChem BioAssay (NCI)

tested on: ACHN renal; assay: NCI-60 one-dose screen, 48 h; conditions: 10 µM unless noted
The panel holds about 83,000 compounds, 20% with a hit somewhere; the sample as a whole holds those more often. Calls of active or inactive are those of the source. Rule for the calls: active = growth percent below 10; inactive = the rest.
Can you answer with just one of these options? active, inactive

A selection of reference data follows.
molecule: COc1cc(/C=C2\C(=O)Nc3ccccc32)ccc1OCc1ccc(F)cc1
test-system: ACHN renal
group-label: inactive
--
molecule: O=C(CCn1cc[n+](CC(=O)c2ccc(-c3ccccc3)cc2)c1)Nc1cccc2cccnc12
test-system: ACHN renal
group-label: inactive
--
molecule: CC(C)(C)c1ccc(CC(=O)Nc2sc3c(c2C(N)=O)CCC(=O)C3)cc1
test-system: ACHN renal
group-label: active

// query Test call, this molecule: O=C(NNc1nc2cc(F)ccc2n2cccc12)c1ccncn1
// result inactive

// query # outcome recorded in this test, key = COc1cc(-c2ccc3ncnc(NCc4ccccc4)c3c2)cnc1OC
// result inactive

// query Identify the outcome logged in this assay for the molecule shown: COc1cc(/C=C2\C(=O)Nc3ccccc32)ccc1OCc1ccc(Cl)cc1
// result inactive

// query Could you check what this test reported for COc1ccc(NC2=C(Cl)C(=O)c3nc(C)ccc3C2=O)cc1OC ?
// result inactive

// query What did the test return for COc1ccc(S(=O)(=O)NCCCNc2nccc(-c3[nH]c(-c4ccccc4)nc3-c3ccc(Cl)c(O)c3)n2)cc1 ?
// result inactive

// query Hi team, can someone confirm the assay call for COc1ccc(Cn2cc3c(c2-c2cc(OC)c(OC)c(OC)c2)CCc2c(CN4CCOCC4)noc2-3)cc1 ?
// result inactive

// query Status in this test for COc1cc(OC)c(/C=C/S(=O)(=O)Cc2ccc(OC)c(NCC(=O)NO)c2)c(OC)c1 ?
// result inactive

// query I would be grateful if you could indicate the recorded call for Cc1ccc(-c2cc3nc(C(Cl)Cl)nc(-c4ccco4)n3n2)cc1 .
// result active

// query Recorded test outcome, item C[C@@H]1C[C@H]2C(=O)O[C@@H](C)C(NC(=O)[C@H](Cc3cc(F)cc(F)c3)NC(=O)Nc3ccc(Cl)cc3F)C(=O)N3CCC[C@H]3C(=O)N3CCCC[C@H]3C(=O)N[C@@H](CO)C(=O)N2C1 (stereo not given in full)
// result inactive

// query Record request — test call for C=C(C=O)[C@@H]1CC[C@]2(CO)CC[C@]3(C)[C@H](CC[C@@H]4[C@@]5(C)CCCNC(C)(C)[C@@H]5CC[C@]43C)[C@@H]12
// result inactive

// query # outcome recorded in this test, key = CC1(C)CC[C@]2(C(=O)N3CCOCC3)CC[C@]3(C)C(=CC[C@@H]4[C@@]5(C)C/C(=C/c6ccccn6)C(=O)C(C)(C)[C@@H]5CC[C@]43C)[C@@H]2C1
// result inactive

----------
system: M14 melanoma; test: NCI-60 one-dose screen, 48 h (100 = growth as untreated, 0 = no growth, -100 = all killed); details: 10 µM unless noted
This is part of a sample that, as a whole, favours compounds with a hit. Of some 83,000 tested, about 20% had one in any assay. The source made the active and inactive calls. The calls were made as follows: active = growth percent below 10; inactive = the rest.
property-measured: growth

Below, each entry is followed by its recorded growth result.
structure-smiles-string: COc1cc(OC)cc(C(=O)Nc2cccc(C#Cc3cccc4[nH]nc(N)c34)c2)c1
growth: -2.56% (active)
--
structure-smiles-string: C=CC(=O)N1CCC=C(c2cc3c(N[C@H](C)c4ccccc4)ncnc3[nH]2)C1
growth: 85.9% (inactive)
--
structure-smiles-string: C#CCn1cccc1CNc1ccc(OC)cc1
growth: 7.08% (active)

// query Entry C#C[C@]1(O)CC[C@H]2[C@@H]3CC=C4c5sc(-c6ccc(C)cc6)nc5CC[C@]4(C)[C@H]3CC[C@@]21C needs its growth filled in; supply it.
// result -49.9% (active)

----------
system: SK-OV-3 ovarian; experiment: NCI-60 one-dose screen, 48 h; settings: 10 µM unless noted
The panel holds about 83,000 compounds, 20% with a hit somewhere; the sample as a whole holds those more often. Calls of active or inactive are those of the source. Rule for the calls: active = growth percent below 10; inactive = the rest.
Assign a class; possible classes are active, inactive

Study these solved cases before continuing.
molecule: COc1ccccc1N1CCN(C2=CC(=O)C(C)=C(C)C2=O)CC1
group-label: inactive

molecule: COC(=O)c1[nH]nc2c1C1(C(=O)N(C)c3ccccc31)C(C#N)=C(N)O2 (centres undefined)
group-label: inactive

molecule: CCOC(=O)C(=O)CC(=O)N1C(=S)NC(=O)C1CC(C)C (centres undefined)
group-label: inactive

// query Given COc1cc(OC)c(/C=C/S(=O)(=O)Cc2ccc(OC)c(NCC(=O)NO)c2)c(OC)c1 , state the outcome it received in this test.
// result inactive

// query Which outcome did this test record for the molecule N#Cc1cnc2ccc(-c3cnc4[nH]ncc4c3)cc2c1N1CCc2cc(F)c(Cl)cc21 ?
// result active

// query Kindly provide the recorded test outcome for the following molecule: COc1ccc(S(=O)(=O)NCCCNc2nccc(-c3cn(C(C)(C)C)nc3-c3ccc(Cl)c(OC)c3)n2)cc1
// result inactive

// query Per the assay record, what outcome was assigned to CCOc1ccccc1NC1=C(Cl)C(=O)c2nc(C)ccc2C1=O ?
// result inactive

// query Would you mind telling me which call this test gave COc1ccc(OC)c(-c2nc(SCC(=O)c3ccc(Br)cc3)nc(Nc3ccc(S(N)(=O)=O)cc3)c2C#N)c1 ?
// result inactive

// query Call for entry O=C(CCn1cc[n+](CC(=O)c2ccc(-c3ccccc3)cc2)c1)Nc1cccc2cccnc12 :
// result inactive

----------
tested on: U251 CNS; experiment: NCI-60 one-dose screen, 48 h (100 = growth as untreated, 0 = no growth, -100 = all killed); conditions: 10 µM unless noted
About 83,000 compounds went through this panel and 20% of them were active in at least one assay; those are over-represented in the sample as a whole.
// criterion not met strictly below 70% in growth; criterion met otherwise

// query hey, is growth for this one >= 70%? O=C1CCCc2nc(Nc3ccc(S(=O)(=O)Nc4ccc([N+](=O)[O-])cc4)cc3)ncc21
// result criterion met

// query Determine whether this compound has growth no lower than 70%: COc1ccc([C@@H]2c3[nH]c4ccccc4c3C[C@H]3C(=O)N(C4CCN(CC5CCCCC5)CC4)CC(=O)N23)c(OC)c1
// result criterion met

----------
I'd be grateful if you could share measured growth for these entries.
system: K-562 leukemia; assay: NCI-60 one-dose screen, 48 h (100 = growth as untreated, 0 = no growth, -100 = all killed); conditions: 10 µM unless noted
About 83,000 compounds went through this panel and 20% of them were active in at least one assay; those are over-represented in the sample as a whole.
One number for each entry, in %.

Examples with answers:
compound: CN1CCN(Cc2ccc(NC(=O)c3cncc(C#Cc4cnc5ccc(OCC6(C)COC6)nn45)c3)cc2C(F)(F)F)CC1
test-system: K-562 leukemia
growth / %: 4.99
--
compound: C#Cc1nc(C(=O)NCCC(=O)Nc2ccc(NC(=O)c3ccc(/C=C/C(=O)c4nccn4C)cc3)cc2)cs1
test-system: K-562 leukemia
growth / %: 8.97
--
compound: CC(=O)Nc1cccc(Nc2nc(N[C@@H](C)c3ccccc3)c3ccccc3n2)c1
test-system: K-562 leukemia
growth / %: -19

List reported growth for each of these compounds:
1. Cc1nc(-c2ccccc2O)ccc1C(=O)N=Nc1c(O)[nH]c2ccc(Br)cc12
2. COc1ccc(/C=N/NC(=O)c2cn(C3CC3)c3c(OC)c(N4CC5CCCNC5C4)c(F)cc3c2=O)cc1 (stereo not drawn)
3. CNC(=O)c1cc(-c2ccc(NC(=S)Nc3cc(C(F)(F)F)cc(C(F)(F)F)c3)cc2)nc2cccnc12
4. CCOC(=O)c1c(Nc2ccccc2)nn2c(-c3ccc(OC)cc3)ccnc12

// result
1: 113; 2: 7.92; 3: 94.9; 4: 45.3

State recorded growth for all listed compounds.
1. Cn1ccnc1C(=O)/C=C/c1ccc(CNC(=O)c2ccc(F)cc2)cc1
2. COc1ccc([C@@H]2[C@@H](O)C(=O)N2c2cc(OC)c(OC)c(OC)c2)cc1F
3. Nc1ccccc1NC(=O)c1ccc(NC(=O)C/C=C/c2cccnc2)cc1
4. CN1CCN(Cc2ccc(NC(=O)c3cncc(C#Cc4cnc5ccc(OCC(C)(C)O)nn45)c3)cc2C(F)(F)F)CC1

// result
1. 11.3
2. 8.16
3. 17.1
4. 8.57

----------
system: RPMI-8226 leukemia; test: NCI-60 one-dose screen, 48 h (100 = growth as untreated, 0 = no growth, -100 = all killed); details: 10 µM unless noted
Compounds without any hit were thinned out: in the full panel of roughly 83,000, 20% have a hit.
property-measured: growth (%)
Answers are plain numbers, in %.

For orientation, consider the following solved cases.
compound: COc1cc(-c2nc(SCCC(C)C)nc(NNC(=O)c3ccncc3)c2C#N)cc(OC)c1OC
test-system: RPMI-8226 leukemia
growth, %: 100
--
compound: O=C(CSc1nnc(-c2ccc(Cl)cc2)n1-c1ccccc1)Nc1ccc(Br)cc1
test-system: RPMI-8226 leukemia
growth, %: 17.5
--
compound: O=C(CNc1nc(-c2cccc([N+](=O)[O-])c2)cs1)Nc1cccc([N+](=O)[O-])c1
test-system: RPMI-8226 leukemia
growth, %: -18.8
--
compound: CCN(CC)c1ccc(NC2=C(Cl)C(=O)c3nc(C)ccc3C2=O)cc1
test-system: RPMI-8226 leukemia
growth, %: 2.6
--
compound: O=C(NNc1nc2cc(F)c(F)cc2n2cccc12)c1cnccn1
test-system: RPMI-8226 leukemia
growth, %: 30.5
--
compound: Oc1ccc(CSc2nnc(-c3ccc(Cl)cc3)n2-c2ccccc2)c2cccnc12
test-system: RPMI-8226 leukemia
growth, %: 16.4
--
compound: CC(=O)c1ccc(Nc2nc(SCC(C)C)nc(-c3ccc(F)cc3)c2C#N)cc1
test-system: RPMI-8226 leukemia
growth, %: 118
--
compound: CCOc1ccc(C(=O)Nc2ncc(Cc3ccc(F)cc3)s2)cc1
test-system: RPMI-8226 leukemia
growth, %: 25.5
--
compound: COc1cccc(/C=C(/C)c2ccc3cccc(OC)c3[o+]2)c1O
test-system: RPMI-8226 leukemia
growth, %: 93.1
--
compound: COc1ccc(NC(=O)Nc2ccc3c(ccn3C(=O)c3cccc(F)c3)c2)cc1
test-system: RPMI-8226 leukemia
growth, %: 78.9

Batch request: growth for each of the following compounds.
1. N#Cc1cccc(NC(=O)c2cc(-c3ccc(F)cc3F)ccc2O)c1
2. CC(C)(C)c1ccc(C(=O)Nc2sc3c(c2C(N)=O)CCC(O)C3)cc1 (stereo not given)
3. COc1ccc(NCc2cn(-c3ccc(C(=O)O)cc3)nc2-c2cc(C(F)(F)F)cc(C(F)(F)F)c2)cc1
4. Nc1nc(N)c2c(n1)NC(c1ccc(Cl)cc1)CC(c1ccc(Nc3nc(NCCO)nc(N4CCOCC4)n3)cc1)=N2 (stereo not given)
5. CC/C(=C/c1cc(OC)ccc1O)c1ccc2cc(OC)ccc2[o+]1
6. COC(=O)c1[nH]nc2c1C1(C(=O)N(C)c3ccccc31)C(C#N)=C(N)O2 (stereo not given)
7. CCNC(=O)N1CCc2cc(OC)c(OCCc3ccc(OC)nc3)cc2C1c1ccc(OC)cc1C (stereo not given)

// result
1. -8.42
2. 16.3
3. 67.2
4. 38.9
5. 79.4
6. 104
7. 31.4
